assay: melting temperature; fluorescence melt of hairpins on a sequencing array, two-state fit, raised by 9.35 °C to match UV melts; settings: sodium 0.088 M
Could you mark each record criterion met if its Tm falls strictly under 40 °C, and criterion not met if it equals or exceeds it?

Q: Regarding CGCCCGGAAACGGGAGCG ((((((....)))..))) , kindly confirm whether its Tm is beneath 40 °C.
Ans: criterion not met

Q: Bench note: check whether GTATGCGAAAGCAGCTAC ((((((....)))..))) shows Tm below 40 °C
Ans: criterion met

Q: Quick check: Tm of GCGAATTTTCGC ((((....)))) under 40 °C?
Ans: criterion not met

Q: is_below(Tm, 40 °C) for GGTGTTGGAAACAATACC (((.(((....))).))) ?
Ans: criterion not met

Q: Confirm or reject: Tm of GATTTAGAAATAAATC ((((((....)))))) lies strictly below 40 °C
Ans: criterion met

Q: For this sequence, is Tm lower than 40 °C? GGAAGCGAAAGCTGTTCC ((((((....)))..)))
Ans: criterion met

###

test: folding enthalpy; higher = less favourable; fluorescence melt of hairpins on a sequencing array, two-state fit; details: sodium 0.088 M
PROPERTY: folding enthalpy (kcal/mol)
The reply should be a number in kcal/mol, with the unit left off.

Q: Give the value of folding enthalpy reported for the following: GATCGGGGCCCCGATC ((((((....))))))
Ans: -55

Q: Supply reported folding enthalpy belonging to this sequence: GGCATGGGAAACCATGTC (.(((((....))))).)
Ans: -26.6

Q: Let me know recorded folding enthalpy for GCGGACCCCGC ((((...)))) , thanks.
Ans: -20.9

Q: Consider the sequence GATAAAGGAAACTTTGTC ((.((((....)))).)) and give its recorded folding enthalpy.
Ans: -14.1

Q: Find the measured folding enthalpy of GCCATCGAAAGATGCGGC ((((((....)))..))) and report it.
Ans: -16.6

Q: Report folding enthalpy, nothing else, for this sequence: GTTGGGGGAAACCCCAGC (.(((((....))))).)
Ans: -17.3

Q: State its folding enthalpy for this sequence: GAACGCGAAAGCGTTTC ((((((....))).)))
Ans: -10.7

Q: Tell me its folding enthalpy given GTAAAGGAAACTTTAC ((((((....)))))) as the entry.
Ans: -32.6

Q: Kindly indicate its recorded folding enthalpy. Item: GCTGCGGGAAACCGCAAC (.(((((....))))).)
Ans: -11.4

Q: Respond only with folding enthalpy recorded for GCCGACGAAAGTCGTGGC ((((((....)))..)))
Ans: -16.3

Q: Report measured folding enthalpy; entry is GTCTCCGAAAGGAGGAC ((((((....))).)))
Ans: -16.4

Q: Note down folding enthalpy recorded for CGTGGCCGGAAACGGACG (((..(((....))))))
Ans: -10.8

Q: Answer with the recorded folding enthalpy for the sequence listed here: GATCCGCTACGGATC ((((((...))))))
Ans: -31.7

Q: Tell us which folding enthalpy value is on record for GATCTGGGTACAGATC ((((((....))))))
Ans: -38.7

Q: Specify reported folding enthalpy for the sequence shown: GAGCACGAAAGTGTCCTC ((((((....)))..)))
Ans: -12.9

Q: Input GCGACGCGAAAGCATCGC ((((.((....)).)))) , output reported folding enthalpy.
Ans: -43.2

Q: Input GTGCCGCCGAAAGGCCAC (((..(((....)))))) , output reported folding enthalpy.
Ans: -9.13

Q: For the sequence GGCGAACGAAAGTTAGCC (((.(((....))).))) , give its reported folding enthalpy.
Ans: -34.4

Q: Please report folding enthalpy for the following sequence: GATCTCTGATGAGATC ((((((....))))))
Ans: -33.3

Q: Complete the entry with folding enthalpy for GAACGTGAAAACGTTC ((((((....))))))
Ans: -34

Q: Read the entry GATCAATGTGTTGATC ((((((....)))))) and write its reported folding enthalpy.
Ans: -35

Q: Supply reported folding enthalpy belonging to this sequence: GTGTGCGAAAGCACCCAC ((((((....)))..)))
Ans: -8.11

Q: Give recorded folding enthalpy. GATAGTGGAAACATTATC ((((.((....)).))))
Ans: -18.4

Q: Return reported folding enthalpy. Input sequence: GGTTGTGGAAACGCAACC (((((.(....).)))))
Ans: -40.7

Q: Let me know recorded folding enthalpy for GAGAACGAAAGTTGGCTC ((((((....)))..))) , thanks.
Ans: -19.1

Q: Give the measured folding enthalpy for GTAATCGAAAGATTTAC ((((((....))).)))
Ans: -14.7

Q: Read the entry GGAACCGAAAGGTAATCC ((((((....)))..))) and write its reported folding enthalpy.
Ans: -9.87

Q: Provide folding enthalpy value for the following sequence: GGGAGAACGAAAGTTCCC (((..(((....))))))
Ans: -17.1

Q: Determine its reported folding enthalpy: GCTTCGCGAAAGCGTAGC (((.(((....))).)))
Ans: -42.6

Q: Return folding enthalpy (reported value) for this sequence: GATCTGGGAAACTAGATC (((((.(....).)))))
Ans: -32.2

Q: For the sequence GCAGTGCGAAAGCGCCGC ((.(.((....)).).)) , give its reported folding enthalpy.
Ans: -17.9

Q: Supply recorded folding enthalpy for GGCCTAGGAAACTAGACC ((.((((....)))).)) here.
Ans: -28.6

Q: Give the reported value of folding enthalpy for this record: GATATGAAAATATC (((((....)))))
Ans: -15.7

Q: Read off the recorded folding enthalpy for CGCAGGAAACTGCG (((((....)))))
Ans: -25.9

Q: For the sequence GAATGCGAAAGCATTTC ((((((....))).))) , give its measured folding enthalpy value.
Ans: -12.5

Q: Answer with the recorded folding enthalpy of GCCAGTGGAAACACCGGC (((.(((....))).))) only.
Ans: -37.1

Q: Return folding enthalpy (reported value) for this sequence: GCAGAGCGAAAGCGCAGC ((.(.((....)).).))
Ans: -19.6

Q: Write down folding enthalpy measured for item GTGGCCGAAAGGCGACAC ((((((....)))..)))
Ans: -14

Q: Consider the sequence GTGCACGAAAGTGAACAC ((((((....)))..))) . State its measured folding enthalpy.
Ans: -15.4

Q: Supply recorded folding enthalpy for GCTCCGCGAAAGCAAAGC (((..((....))..))) here.
Ans: -11

Q: Specify folding enthalpy for GACTGCGGAAACACAGTC (((((.(....).))))) and stop.
Ans: -26.8

Q: Report folding enthalpy, nothing else, for this sequence: GCATTGGGAAACCGATGC ((((.((....)).))))
Ans: -50.4

Q: Output measured folding enthalpy for this item: GTTGCGGGAAACCGTAGC (.(.(((....))).).)
Ans: -24.5

Q: Give recorded folding enthalpy. GAGAGTGAAAACTCTC ((((((....))))))
Ans: -32.1

Q: Identify folding enthalpy associated with the sequence GCCCCGCGAAAGCGCAGC ((..(((....)))..))
Ans: -7.42

Q: Return folding enthalpy (reported value) for this sequence: GATCGACCCTTCGATC ((((((....))))))
Ans: -45.1

Q: Give the reported folding enthalpy for this sequence. GATGAGGCGAAAGCCATC (((..(((....))))))
Ans: -13.1

Q: Input GATCCCCCACGGGATC ((((((....)))))) , output reported folding enthalpy.
Ans: -35.6

Q: Give folding enthalpy for GGGCTTGAAAAAGCCC ((((((....))))))
Ans: -35.8

Q: Complete the entry with folding enthalpy for GCGACTCCGAAAGGACGC (((..(((....))))))
Ans: -25.6
